measured target: T1, Recombinant human glypican-3 (aa 1-559), His-tagged, R&D Systems (human, UniProt P51654 25-559)
T1 construct: also called huGPC3; Hu GPC3-His
T1 sequence (P51654 other isoform, or with tags, fused parts or gaps): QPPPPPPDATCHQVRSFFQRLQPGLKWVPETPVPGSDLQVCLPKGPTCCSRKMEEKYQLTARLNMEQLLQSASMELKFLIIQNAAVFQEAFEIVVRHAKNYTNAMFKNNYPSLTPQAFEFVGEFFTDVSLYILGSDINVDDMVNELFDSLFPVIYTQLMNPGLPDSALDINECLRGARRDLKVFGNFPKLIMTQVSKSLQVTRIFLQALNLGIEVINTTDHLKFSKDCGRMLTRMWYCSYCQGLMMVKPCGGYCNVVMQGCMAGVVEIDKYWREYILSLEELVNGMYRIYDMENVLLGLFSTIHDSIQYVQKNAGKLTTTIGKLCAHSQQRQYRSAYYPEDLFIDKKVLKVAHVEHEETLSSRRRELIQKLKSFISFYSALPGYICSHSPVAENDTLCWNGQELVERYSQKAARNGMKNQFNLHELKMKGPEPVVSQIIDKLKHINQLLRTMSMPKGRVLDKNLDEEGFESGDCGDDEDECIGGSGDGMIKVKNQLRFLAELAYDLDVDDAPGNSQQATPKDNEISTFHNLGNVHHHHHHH
protocol summary: SPR 1-point off-rate, alkylated mutant vs parent
measurement kind: huGPC3 koff (mut/par) (fold)
Numeric answer only, unit fold assumed.

Here is how some binders turned out for huGPC3 koff (mut/par).
binder: ADX_6077_F02 DG→DL mutant, alkylated (designed binder, C-terminal cysteine alkylated, also called P1-055671) GVSDVPRDLEVVAATPTSLLISWSDDYHAHRYYRITYGETGGNSPVQEFTVPGEHVTATISGLKPGVDYTITVYAVTYDLEKAATDWSISINYRTPC
unit descriptor: fold
huGPC3 koff (mut/par): 3.6
--
binder: ADX_6077_F02 DG→DV mutant, alkylated (designed binder, C-terminal cysteine alkylated, also called P1-055672) GVSDVPRDLEVVAATPTSLLISWSDDYHAHRYYRITYGETGGNSPVQEFTVPGEHVTATISGLKPGVDYTITVYAVTYDVEKAATDWSISINYRTPC
unit descriptor: fold
huGPC3 koff (mut/par): 7.9
--
binder: ADX_6077_F02 DG→GG mutant, alkylated (designed binder, C-terminal cysteine alkylated, also called P1-055670) GVSDVPRDLEVVAATPTSLLISWSDDYHAHRYYRITYGETGGNSPVQEFTVPGEHVTATISGLKPGVDYTITVYAVTYGGEKAATDWSISINYRTPC
unit descriptor: fold
huGPC3 koff (mut/par): 14

Dear colleague, please send me the reported huGPC3 koff (mut/par) for ADX_6077_F02 DG→AG mutant, alkylated (designed binder, C-terminal cysteine alkylated, also called P1-055669) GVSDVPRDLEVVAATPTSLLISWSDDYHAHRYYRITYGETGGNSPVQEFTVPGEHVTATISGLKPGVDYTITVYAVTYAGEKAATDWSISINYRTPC when you can.
5.9

Look up huGPC3 koff (mut/par) of ADX_6077_F02 DG→DS mutant, alkylated (designed binder, C-terminal cysteine alkylated, also called P1-055667) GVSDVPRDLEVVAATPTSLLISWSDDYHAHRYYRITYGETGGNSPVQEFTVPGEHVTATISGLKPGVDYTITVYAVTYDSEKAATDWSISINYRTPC and report it.
3.5

The reported measurements were obtained from patent US20230312686A1.
